assay-system: factor Xa (Homo sapiens, UniProt P00742)
Sequence (P00742 235-488 limits assumed): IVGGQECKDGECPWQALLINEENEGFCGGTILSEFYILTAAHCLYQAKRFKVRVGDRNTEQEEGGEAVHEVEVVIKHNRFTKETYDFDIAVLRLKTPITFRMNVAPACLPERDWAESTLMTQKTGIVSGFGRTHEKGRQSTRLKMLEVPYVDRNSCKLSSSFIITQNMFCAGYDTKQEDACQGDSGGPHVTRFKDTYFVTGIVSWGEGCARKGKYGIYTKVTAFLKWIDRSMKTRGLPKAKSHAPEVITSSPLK
Sequence (P00742 41-179 partner limits assumed): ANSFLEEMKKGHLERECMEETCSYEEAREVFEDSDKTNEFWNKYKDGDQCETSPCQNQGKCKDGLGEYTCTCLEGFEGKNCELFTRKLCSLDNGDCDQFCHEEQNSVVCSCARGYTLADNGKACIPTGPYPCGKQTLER
property-label: Ki (pM)

{"entry-smiles": "CNC(=N)N(C)c1ccc(C(=O)Nc2ccc(Cl)cc2C(=O)Nc2ccc(Cl)cn2)cc1", "units-text": "pM", "Ki": 500}

I. CC(=N)N(C)c1ccc(C(=O)Nc2ccc(Cl)cc2C(=O)Nc2ccc(Cl)cn2)cc1
II. CC(=N)N(C)c1ccc(C(=O)Nc2ccc(C)cc2C(=O)Nc2ccc(Cl)cn2)c(OCCCNC(C)=O)c1
III. CNC(=O)N(C)c1ccc(C(=O)Nc2ccc(Cl)cc2C(=O)Nc2ccc(Cl)cn2)c(OCCCN)c1
Ascending sort, Ki. // format: requested-order list of labels
III, I, II

###

assay-system: factor Xa (Homo sapiens)
property-label: Ki (nM)

{"entry-smiles": "CC(=N)N(C)c1cc(F)c(C(=O)Nc2ccc(Cl)cc2C(=O)Nc2ccc(Cl)cn2)c(OCCCN)c1", "assay-system": "factor Xa (Homo sapiens)", "value-measured": 0.4}
{"entry-smiles": "CC(=N)N(C)c1ccc(C(=O)Nc2ccccc2C(=O)Nc2ccc(Cl)cn2)cc1", "assay-system": "factor Xa (Homo sapiens)", "value-measured": 2}

P. CC(=N)N(C)c1ccc(C(=O)Nc2ccc(C)cc2C(=O)Nc2ccc(Cl)cn2)cc1
Q. COC(=N)N(C)c1ccc(C(=O)Nc2ccc(C)cc2C(=O)Nc2ccc(Cl)cn2)cc1
When P and Q are compared, which has the higher number for Ki? Reply briefly: the label of your chosen item.
Q
(Q: 2 nM, P: 0.5 nM)

###

assay-system: factor Xa (Homo sapiens)
pKi: −log10 of the molar value.
property-label: pKi

{"compound": "COc1ccc(NC(=O)c2ccc(N(C)C(C)=N)cc2OCCCN)c(C(=O)Nc2ccc(Cl)cn2)c1 [Example 8]", "property-label": "pKi", "value-measured": 9.30}
{"compound": "CC(=N)N(C)c1ccc(C(=O)Nc2ccc(C)cc2C(=O)Nc2ccc(Cl)cn2)c(OCCCN)c1 [Example 6]", "property-label": "pKi", "value-measured": 9.30}
{"compound": "CC(=N)N(C)c1cc(F)c(C(=O)Nc2ccc(C)cc2C(=O)Nc2ccc(Cl)cn2)c(OCCCN)c1 [Example 9]", "property-label": "pKi", "value-measured": 9.40}
{"compound": "CC(=N)N(C)c1ccc(C(=O)Nc2ccccc2C(=O)Nc2ccc(Cl)cn2)c(OCCCN)c1 [Example 5]", "property-label": "pKi", "value-measured": 9.30}
